# assay details: Inhibition of HIV1 recombinant integrase
# Set-up: species or system Human immunodeficiency virus 1
observable: IC50 (µM)

compound	unit label	reported relation	data value
COc1ccc(CNC(=O)/C=C(\O)C(=O)O)c(OC)c1	µM	=	7.5
O=C(/C=C(\O)C(=O)O)NCc1ccc(Cl)cc1	µM	=	1.1
O=C(/C=C(\O)C(=O)O)NCc1ccc(C(F)(F)F)cc1	µM	=	9
O=C(/C=C(\O)C(=O)O)NCc1ccccc1F	µM	=	1.8
Cc1cccc(CNC(=O)/C=C(\O)C(=O)O)c1	µM	=	0.3
C[C@@H](NC(=O)/C=C(\O)C(=O)O)c1ccccc1	µM	>	300
O=C(/C=C(\O)C(=O)O)NCc1cccc(F)c1	µM	=	1.2
O=C(/C=C(\O)C(=O)O)NCc1ccc([N+](=O)[O-])cc1	µM	=	2.1
COc1ccc(CNC(=O)/C=C(\O)C(=O)O)cc1Cl	µM	=	0.3
C[C@H](NC(=O)/C=C(\O)C(=O)O)c1ccccc1	µM	=	24
COc1cccc(CNC(=O)/C=C(\O)C(=O)O)c1	µM	=	2.4
O=C(/C=C(\O)C(=O)O)NCc1ccccc1	µM	=	0.3
O=C(/C=C(\O)C(=O)O)NCc1ccccc1Cl	µM	=	1.7
COc1ccc(CNC(=O)/C=C(\O)C(=O)O)cc1	µM	=	4.2
CN(Cc1ccc(F)cc1)C(=O)/C=C(\O)C(=O)O	µM	=	0.11
O=C(/C=C(\O)C(=O)O)NCc1cccc(Cl)c1Cl	µM	=	0.2
O=C(/C=C(\O)C(=O)O)NCc1ccc(Cl)nc1	µM	=	0.7
Cc1ccccc1CNC(=O)/C=C(\O)C(=O)O	µM	=	1.3
CC(NC(=O)/C=C(\O)C(=O)O)c1ccc(F)cc1 (stereo unspecified)	µM	=	3
O=C(/C=C(\O)C(=O)O)NCc1cccc(Cl)c1	µM	=	0.6
COc1ccccc1CNC(=O)/C=C(\O)C(=O)O	µM	=	0.5
CC(C)(C)c1ccc(CNC(=O)/C=C(\O)C(=O)O)cc1	µM	=	180
O=C(/C=C(\O)C(=O)O)NCc1cc(F)cc(F)c1	µM	=	1.7
O=C(/C=C(\O)C(=O)O)NCc1ccc(F)cc1	µM	=	0.2
Cc1ccc(CNC(=O)/C=C(\O)C(=O)O)cc1F	µM	=	0.2
Cc1ccc(CNC(=O)/C=C(\O)C(=O)O)cc1	µM	=	1.4
